FYI, the data here is from patent US20240376170A1.

STUDY_SYSTEM: T1, IL-2 receptor βγ complex on C57BL/6 mouse splenocytes (mouse, UniProt P16297 27-539; P34902 23-369)
T1 sequence (looked up) 1: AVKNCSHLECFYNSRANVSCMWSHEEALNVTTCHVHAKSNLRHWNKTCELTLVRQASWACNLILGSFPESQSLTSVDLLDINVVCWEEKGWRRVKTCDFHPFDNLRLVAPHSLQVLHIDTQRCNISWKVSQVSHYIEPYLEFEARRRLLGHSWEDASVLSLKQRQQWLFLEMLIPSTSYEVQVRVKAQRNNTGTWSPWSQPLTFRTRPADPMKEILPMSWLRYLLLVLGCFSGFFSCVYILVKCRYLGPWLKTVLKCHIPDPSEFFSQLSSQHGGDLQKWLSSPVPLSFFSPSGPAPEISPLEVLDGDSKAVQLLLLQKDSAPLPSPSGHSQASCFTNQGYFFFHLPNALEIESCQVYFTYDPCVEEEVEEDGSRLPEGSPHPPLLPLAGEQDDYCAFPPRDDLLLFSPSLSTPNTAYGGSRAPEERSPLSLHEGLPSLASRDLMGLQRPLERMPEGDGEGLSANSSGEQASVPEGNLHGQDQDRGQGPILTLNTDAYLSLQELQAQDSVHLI
T1 sequence (looked up) 2: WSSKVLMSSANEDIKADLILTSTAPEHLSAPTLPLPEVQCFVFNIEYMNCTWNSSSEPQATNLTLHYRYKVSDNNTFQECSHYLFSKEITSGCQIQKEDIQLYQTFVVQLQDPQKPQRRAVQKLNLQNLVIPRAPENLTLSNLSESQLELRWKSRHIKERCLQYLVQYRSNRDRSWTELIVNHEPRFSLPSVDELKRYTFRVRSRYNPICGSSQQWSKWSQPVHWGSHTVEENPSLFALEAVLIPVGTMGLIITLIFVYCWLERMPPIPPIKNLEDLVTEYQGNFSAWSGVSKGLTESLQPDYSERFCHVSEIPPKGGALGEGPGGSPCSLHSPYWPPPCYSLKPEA
PROTOCOL_SUMMARY: cell-based or functional assay
[ ]: non-standard residue; d: D form. Ygp = O-(8x polyethylene glycol-amino)-tyrosine (Tyr, amino-capped PEG8); Yn3 = O-(9x polyethylene glycol-azido)-tyrosine (Tyr, azide-capped PEG9); hSer = N[C@@H](CCO)C(=O)O; Nle = CCCC[C@H](N)C(=O)O
MEASUREMENT_NAME: Average EC50, pSTAT5 Assay in mouse splenocytes (nM)
Just the number in nM, nothing appended.

INPUT: # get_value(readout='Average EC50, pSTAT5 Assay in mouse splenocytes', item= CMP-003 (ligand, ends and bridges not checked) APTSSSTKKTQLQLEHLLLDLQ[Nle]ILNGINNYKNPKLTR[Nle]L[hSer][Yn3]KF[Ygp][Nle]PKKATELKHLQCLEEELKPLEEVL[hSer]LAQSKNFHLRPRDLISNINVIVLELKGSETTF[hSer]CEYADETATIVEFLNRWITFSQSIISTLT )
OUTPUT: 24

INPUT: # get_value(readout='Average EC50, pSTAT5 Assay in mouse splenocytes', item= CMP-145, MMP2 cleaved molecule (ligand, ends and bridges not checked; also: Lys23 side chain attached to another sequence (cleavable peptide), cut by MMP2, product not given here) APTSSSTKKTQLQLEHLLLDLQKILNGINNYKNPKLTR[Nle]L[hSer][Yn3]KF[Ygp][Nle]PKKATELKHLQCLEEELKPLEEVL[hSer]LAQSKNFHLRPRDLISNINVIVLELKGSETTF[hSer]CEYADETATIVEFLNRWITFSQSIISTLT )
OUTPUT: 55.2

INPUT: # get_value(readout='Average EC50, pSTAT5 Assay in mouse splenocytes', item= CMP-003, MMP2 treated (ligand, ends and bridges not checked) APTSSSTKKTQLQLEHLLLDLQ[Nle]ILNGINNYKNPKLTR[Nle]L[hSer][Yn3]KF[Ygp][Nle]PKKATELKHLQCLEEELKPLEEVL[hSer]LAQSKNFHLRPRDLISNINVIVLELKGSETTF[hSer]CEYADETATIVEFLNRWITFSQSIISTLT )
OUTPUT: 45.7
